tgt: Sut1 (UniProt P53032)
Sequence: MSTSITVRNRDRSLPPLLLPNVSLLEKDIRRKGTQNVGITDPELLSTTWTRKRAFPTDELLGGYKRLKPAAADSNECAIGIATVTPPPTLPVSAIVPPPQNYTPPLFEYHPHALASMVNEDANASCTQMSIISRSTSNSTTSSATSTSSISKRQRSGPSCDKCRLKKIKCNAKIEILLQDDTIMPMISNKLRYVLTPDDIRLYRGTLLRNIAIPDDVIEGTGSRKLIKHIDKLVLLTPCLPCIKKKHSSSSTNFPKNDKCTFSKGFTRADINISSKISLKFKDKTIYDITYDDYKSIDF
test_details: PBM E-score (8-mer binding enrichment) (E-score (-0.5 to 0.5)); higher = stronger / more preferred TF binding
condition_label: protein concentration: 200 nM; construct: GST-full length
Over roughly 33,000 sequences, “E-score (-0.5 to 0.5)” has its median near -0.017; the highest 2% begin near 0.3. The sample as a whole holds a higher share of the highest values than the screen did.
readout_label: PBM E-score

[
  {
    "query_sequence": "AATTAATT",
    "PBM E-score": 0.206
  }
]

Test system Sut1 (UniProt P53032); read-out PBM E-score; what value for CTAACTAA ?
0.142

Test system Sut1 (UniProt P53032); read-out PBM E-score; what value for AATAATTC ?
0.268

----------
Quick reference for PBM E-score among some sequences
tgt: Sut1 (UniProt P53032)
Sequence: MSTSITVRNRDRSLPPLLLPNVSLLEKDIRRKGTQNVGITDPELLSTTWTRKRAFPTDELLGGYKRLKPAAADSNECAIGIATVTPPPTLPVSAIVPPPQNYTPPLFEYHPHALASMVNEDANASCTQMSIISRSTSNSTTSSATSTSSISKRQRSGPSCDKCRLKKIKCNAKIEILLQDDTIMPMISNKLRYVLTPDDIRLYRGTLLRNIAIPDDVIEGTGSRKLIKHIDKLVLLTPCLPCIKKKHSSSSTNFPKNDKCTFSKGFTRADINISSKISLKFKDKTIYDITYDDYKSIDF
test_details: PBM E-score (8-mer binding enrichment) (E-score (-0.5 to 0.5)); higher = stronger / more preferred TF binding
condition_label: protein concentration: 200 nM; construct: GST-full length
Over roughly 33,000 sequences, “E-score (-0.5 to 0.5)” has its median near -0.017; the highest 2% begin near 0.3. Many of the other results were omitted from the sample, so the highest values are more common in it than they were.

Answered cases to consult:
[
  {
    "query_sequence": "CAGTCGAC",
    "tgt": "Sut1 (UniProt P53032)",
    "PBM E-score": -0.0872
  },
  {
    "query_sequence": "CGGACTAG",
    "tgt": "Sut1 (UniProt P53032)",
    "PBM E-score": 0.452
  },
  {
    "query_sequence": "ATTAATTA",
    "tgt": "Sut1 (UniProt P53032)",
    "PBM E-score": 0.188
  },
  {
    "query_sequence": "GTATACTA",
    "tgt": "Sut1 (UniProt P53032)",
    "PBM E-score": -0.155
  },
  {
    "query_sequence": "CGATCGGA",
    "tgt": "Sut1 (UniProt P53032)",
    "PBM E-score": 0.246
  }
]

State the recorded PBM E-score for this entry: AACAATAC
0.0474

State the recorded PBM E-score for this entry: ACATACTA
0.15

State the recorded PBM E-score for this entry: GTGCCGAA
0.0728

State the recorded PBM E-score for this entry: GGACCGTA
-0.172

State the recorded PBM E-score for this entry: CATACTCA
-0.0521

State the recorded PBM E-score for this entry: ACAAACAC
0.185

State the recorded PBM E-score for this entry: ATTACTCC
0.318

State the recorded PBM E-score for this entry: GAAACTTA
0.307

State the recorded PBM E-score for this entry: CTTACTTA
0.11

State the recorded PBM E-score for this entry: CAGGTCAC
-0.398

State the recorded PBM E-score for this entry: ACGTCCGG
0.101

State the recorded PBM E-score for this entry: CGGCCCAA
-0.116

State the recorded PBM E-score for this entry: AATACTCC
0.199

State the recorded PBM E-score for this entry: AGGACTAC
-0.118

State the recorded PBM E-score for this entry: AACTTATA
0.31

State the recorded PBM E-score for this entry: GAACAGTC
0.0217

State the recorded PBM E-score for this entry: ATCTTATC
0.154

State the recorded PBM E-score for this entry: GGAGGTGA
0.0437

State the recorded PBM E-score for this entry: ATAATTTC
0.242

State the recorded PBM E-score for this entry: AGAGTGGA
-0.0219

----------
tgt: Sut1 (UniProt P53032)
Sequence: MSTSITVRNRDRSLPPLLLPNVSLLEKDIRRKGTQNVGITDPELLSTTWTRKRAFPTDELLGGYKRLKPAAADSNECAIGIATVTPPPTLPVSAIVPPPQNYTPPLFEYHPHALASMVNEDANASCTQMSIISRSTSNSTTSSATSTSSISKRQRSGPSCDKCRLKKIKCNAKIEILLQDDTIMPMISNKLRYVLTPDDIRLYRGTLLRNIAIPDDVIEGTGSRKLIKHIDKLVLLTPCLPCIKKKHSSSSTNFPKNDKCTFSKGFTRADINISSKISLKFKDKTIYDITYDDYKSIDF
test_details: PBM E-score (8-mer binding enrichment) (E-score (-0.5 to 0.5)); higher = stronger / more preferred TF binding
condition_label: protein concentration: 200 nM; construct: GST-full length
Over roughly 33,000 sequences, “E-score (-0.5 to 0.5)” has its median near -0.017; the highest 2% begin near 0.3. This is one part of a sample in which the highest values are shown more often than they occur.
readout_label: PBM E-score
Answer with a number only.

[
  {
    "query_sequence": "GCTCATGA",
    "PBM E-score": -0.172
  },
  {
    "query_sequence": "ATCGGAAT",
    "PBM E-score": 0.352
  },
  {
    "query_sequence": "ATTTTCCC",
    "PBM E-score": -0.105
  }
]

State the recorded PBM E-score for this entry: ATCGGAAG
0.253

State the recorded PBM E-score for this entry: ATTTTCGC
0.0665

State the recorded PBM E-score for this entry: ATCCGTTC
0.147

State the recorded PBM E-score for this entry: ATCGGAAA
0.302

State the recorded PBM E-score for this entry: CGCCGTTA
-0.0973

State the recorded PBM E-score for this entry: TCAAGAAA
0.316

State the recorded PBM E-score for this entry: AACTTAAG
0.132

State the recorded PBM E-score for this entry: ATGTCCGA
0.45

----------
tgt: Sut1 (UniProt P53032)
Sequence: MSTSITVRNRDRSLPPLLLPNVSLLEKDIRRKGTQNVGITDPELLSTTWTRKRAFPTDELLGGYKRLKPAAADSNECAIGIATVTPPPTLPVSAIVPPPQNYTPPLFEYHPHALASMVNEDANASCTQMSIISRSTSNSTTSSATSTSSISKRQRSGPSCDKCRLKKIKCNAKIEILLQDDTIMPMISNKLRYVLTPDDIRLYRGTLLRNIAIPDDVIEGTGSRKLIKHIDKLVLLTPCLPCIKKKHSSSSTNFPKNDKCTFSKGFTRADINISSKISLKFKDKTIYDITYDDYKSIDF
test_details: PBM E-score (8-mer binding enrichment) (E-score (-0.5 to 0.5)); higher = stronger / more preferred TF binding
condition_label: protein concentration: 200 nM; construct: GST-full length
Whole data set: some 33,000 sequences, median “E-score (-0.5 to 0.5)” near -0.017, cut for the highest 2% near 0.3. For the sample, the highest values were picked, then their nearest neighbours and some sequences at random.
readout_label: PBM E-score
Answer with a number only.

[
  {
    "query_sequence": "CTTCCGGC",
    "PBM E-score": 0.0877
  },
  {
    "query_sequence": "CTTCCGTA",
    "PBM E-score": 0.181
  },
  {
    "query_sequence": "CGGACTGC",
    "PBM E-score": 0.377
  },
  {
    "query_sequence": "AAGGTCTA",
    "PBM E-score": -0.127
  },
  {
    "query_sequence": "AGAAATGC",
    "PBM E-score": 0.048
  }
]

State the recorded PBM E-score for this entry: CGGACTTA
0.492

State the recorded PBM E-score for this entry: CGGACTGA
0.298

State the recorded PBM E-score for this entry: ATATTCAG
0.04

State the recorded PBM E-score for this entry: AGGACTTA
-0.0276

State the recorded PBM E-score for this entry: CAGACTGC
-0.135

State the recorded PBM E-score for this entry: AGGTGTGG
-0.0561

State the recorded PBM E-score for this entry: AGAAAGCT
0.126

State the recorded PBM E-score for this entry: CTTCCGGA
0.347

State the recorded PBM E-score for this entry: ATTCCGGG
0.295

State the recorded PBM E-score for this entry: ACACCCTA
-0.127

State the recorded PBM E-score for this entry: AGGACTGA
-0.109
